B1: Unconventional myosin-Ie, residues 1051 to 1108; numbered along this chain, Q12965 (parent)
chain: PQVPQCKALYAYDAQDTDELSFNANDIIDIIKEDPSGWWTGRLRGKQGLFPNNYVTKI

variants of: B1; assay: abundance fitness (aPCA) (normalised: wild type 0, dead -1); higher = more abundant; growth selection in yeast, the domain comes from the species named; details: Homo sapiens
Threshold check on abundance fitness: at or above -0.2 gives Condition met, strictly below gives Condition not met.

**Query** Please check the record F50I and state if its abundance fitness is at or above -0.2.
**Result** Condition met

**Query** Please check the record I31P and state if its abundance fitness is at or above -0.2.
**Result** Condition not met

**Query** Please check the record K46I and state if its abundance fitness is at or above -0.2.
**Result** Condition not met

**Query** Please check the record A11S and state if its abundance fitness is at or above -0.2.
**Result** Condition met

**Query** Please check the record D34L and state if its abundance fitness is at or above -0.2.
**Result** Condition not met

**Query** Please check the record L20C and state if its abundance fitness is at or above -0.2.
**Result** Condition not met

**Query** Please check the record D34N and state if its abundance fitness is at or above -0.2.
**Result** Condition met

**Query** Please check the record L9W and state if its abundance fitness is at or above -0.2.
**Result** Condition not met

**Query** Please check the record E19W and state if its abundance fitness is at or above -0.2.
**Result** Condition not met

**Query** Please check the record D16L and state if its abundance fitness is at or above -0.2.
**Result** Condition not met

**Query** Please check the record S36R and state if its abundance fitness is at or above -0.2.
**Result** Condition met

**Query** Please check the record T17S and state if its abundance fitness is at or above -0.2.
**Result** Condition met

**Query** Please check the record P51V and state if its abundance fitness is at or above -0.2.
**Result** Condition not met

Values compiled from the Human Domainome abundance scans (Beltran et al. 2025).
